System: Geodermatophilus HPPD (SEQ ID NO: 32)
Assay: In vitro HPPD activity assay, tolerance index
Assay type: biochemical, Geodermatophilus obscurus
Conditions: normalized on Arabidopsis wild-type HPPD
Experimental: The activity assay for HPPD is based on the analysis of homogentisic acid by reversed phase HPLC. […] 5 μl of the cleared sample is analyzed on an UPLC HSS T3 column (particle size 1.8 μm, dimensions 2.1×50 mm; Waters) by isocratic elution using 90% 20 mM NaH2PO4 pH 2.2, 10% methanol (v/v). HGA is detected electrochemically at 750 mV (mode: DC; polarity: positive) and quantified by integrating peak areas (Empower software; Waters). […]
Field: TI (normalized tolerance index). Provide a value for each of the compounds that follow.

Ask: Hello, please tell me recorded TI (normalized tolerance index) for this one: `CCS(=O)(=O)c1cc(C(F)(F)F)ccc1C1=C(O)c2ncccc2C(C)(C)S1(=O)=O`
Result: 5.6

Ask: Provide TI (normalized tolerance index) value for the following compound: `CS(=O)(=O)c1ccc(C(=O)C2C(=O)CCCC2=O)c([N+](=O)[O-])c1`
Result: 0.7

Ask: Return value of TI (normalized tolerance index) for input `CSc1c(Cl)cc(F)c(C(=O)Nc2nnnn2C)c1Cl` , no commentary.
Result: 0.2

Ask: Identify the reported TI (normalized tolerance index) for the following entry. COCCOCc1nc(C(F)(F)F)ccc1C(=O)C1=C(O)C2CCC(C2)C1=O (stereo not drawn)
Result: 7.4

Ask: Tell me TI (normalized tolerance index) reported for `CC(=O)N(C)c1c(Cl)ccc(C2=C(O)c3ncccc3C(C)(C)S2(=O)=O)c1Cl`
Result: 3.4
